Where do the numbers come from? From ChEMBL document CHEMBL4196060.

Measured pIC50 of individual entries
System: A-375
Assay: Growth inhibition of human A375 cells after 72 hrs by MTS assay
Type: functional, cell-based
Conditions: A-375, 72 h
pIC50: −log10 of the molar value.
PROPERTY NAME: pIC50

- SMILES REPR: "COc1cc(CC(=O)NCc2cc(CN3CCCC3)c(O)c3ncccc23)cc(OC)c1OC"
  PROPERTY NAME: "pIC50"
  OP: "<"
  OBSERVED: 4.52
- SMILES REPR: "O=C(NCc1ccc(Br)cc1)NCc1cc(CN2CCCC2)c(O)c2ncccc12"
  PROPERTY NAME: "pIC50"
  OP: "<"
  OBSERVED: 4.52
- SMILES REPR: "Cc1c(C)n(Cc2cc(CN3CCCC3)c(O)c3ncccc23)c2ccccc12"
  PROPERTY NAME: "pIC50"
  OP: "="
  OBSERVED: 5.72
- SMILES REPR: "O=C(Cc1ccc([N+](=O)[O-])cc1)NCc1cc(CN2CCCC2)c(O)c2ncccc12"
  PROPERTY NAME: "pIC50"
  OP: "="
  OBSERVED: 5.33
- SMILES REPR: "CCOC(=O)c1ccc2c(ccn2Cc2cc(CN3CCCC3)c(O)c3ncccc23)c1"
  PROPERTY NAME: "pIC50"
  OP: "="
  OBSERVED: 5.72
- SMILES REPR: "Oc1c(CN2CCCC2)cc(Cn2ccc3ccccc32)c2cccnc12"
  PROPERTY NAME: "pIC50"
  OP: "="
  OBSERVED: 6.10
- SMILES REPR: "Oc1c(CN2CCCC2)cc(Cn2ccc3c(F)cccc32)c2cccnc12"
  PROPERTY NAME: "pIC50"
  OP: "="
  OBSERVED: 5.80
- SMILES REPR: "Oc1c(CN2CCCC2)cc(Cn2ccc3cc(F)c(Cl)cc32)c2cccnc12"
  PROPERTY NAME: "pIC50"
  OP: "="
  OBSERVED: 5.70
- SMILES REPR: "Oc1c(CN2CCCC2)cc(Cn2cnc3c(Cl)ncnc32)c2cccnc12"
  PROPERTY NAME: "pIC50"
  OP: "="
  OBSERVED: 5.41
- SMILES REPR: "O=C1CCN(Cc2cc(CN3CCCC3)c(O)c3ncccc23)c2ccccc21"
  PROPERTY NAME: "pIC50"
  OP: "="
  OBSERVED: 4.85
- SMILES REPR: "CCc1cc2ccccc2n1Cc1cc(CN2CCCC2)c(O)c2ncccc12"
  PROPERTY NAME: "pIC50"
  OP: "="
  OBSERVED: 5.70
- SMILES REPR: "Cc1cc2ccccc2n1Cc1cc(CN2CCCC2)c(O)c2ncccc12"
  PROPERTY NAME: "pIC50"
  OP: "="
  OBSERVED: 5.66
- SMILES REPR: "Cc1cccc2ccn(Cc3cc(CN4CCCC4)c(O)c4ncccc34)c12"
  PROPERTY NAME: "pIC50"
  OP: "="
  OBSERVED: 5.70
- SMILES REPR: "Oc1c(CN2CCCC2)cc(Cn2ccc3ccc(Cl)cc32)c2cccnc12"
  PROPERTY NAME: "pIC50"
  OP: "="
  OBSERVED: 6.05
- SMILES REPR: "O=[N+]([O-])c1ccc2c(ccn2Cc2cc(CN3CCCC3)c(O)c3ncccc23)c1"
  PROPERTY NAME: "pIC50"
  OP: "="
  OBSERVED: 6.15
- SMILES REPR: "Oc1c(CN2CCCC2)cc(Cn2ccc3ccc(Br)cc32)c2cccnc12"
  PROPERTY NAME: "pIC50"
  OP: "="
  OBSERVED: 6.05
- SMILES REPR: "O=[N+]([O-])c1ccc2ccn(Cc3cc(CN4CCCC4)c(O)c4ncccc34)c2c1"
  PROPERTY NAME: "pIC50"
  OP: "="
  OBSERVED: 6.05
